assay target: Transcriptional activator protein LuxR (Vibrio fischeri (strain ATCC 700601 / ES114), UniProt P35327)
Sequence (P35327 whole entry): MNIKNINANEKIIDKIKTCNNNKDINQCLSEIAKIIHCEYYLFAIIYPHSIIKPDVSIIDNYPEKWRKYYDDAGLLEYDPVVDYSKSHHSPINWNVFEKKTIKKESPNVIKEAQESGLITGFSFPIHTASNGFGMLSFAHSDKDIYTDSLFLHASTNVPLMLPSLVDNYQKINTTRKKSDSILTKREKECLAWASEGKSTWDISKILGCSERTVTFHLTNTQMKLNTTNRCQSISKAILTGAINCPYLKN
assay info: Antagonist activity at Vibrio fischeri ES114 LuxR receptor assessed as inhibition of OHHL-induced response by luciferase reporter gene assay
assay endpoint: pIC50
Note: pIC50 values are expressed as the negative base-10 logarithm of concentration in M.

Some compounds with recorded pIC50:
O=C(CCc1cccc(C(F)(F)F)c1)N[C@H]1CCOC1=O :: 6.30
O=C(Cc1ccc(SC(F)(F)F)cc1)N[C@H]1CCOC1=O :: 5.89
O=C(Cc1cccc2ccccc12)N[C@H]1CCOC1=O :: 5.89
O=C(CCc1ccc([N+](=O)[O-])cc1)N[C@H]1CCOC1=O :: 6.00

Just so you know, measured pIC50 for "O=C(CCc1ccc(I)cc1)N[C@H]1CCOC1=O" came out at 6.20

Per the records, this compound ( "O=C(Cc1ccc([N+](=O)[O-])cc1)N[C@H]1CCOC1=O" ) has pIC50 equal to 6.02

The reported pIC50 of the compound "O=C(Cc1ccc(F)c(C(F)(F)F)c1)N[C@H]1CCOC1=O" was 6.00

Memo: "Cc1cccc(CCC(=O)N[C@H]2CCOC2=O)c1" , reported pIC50: 5.68

Form field pIC50, entry "O=C(COc1ccc(Br)cc1)N[C@H]1CCOC1=O" : 5.52

Sure, the documented pIC50 for "O=C(CCc1ccc(C(F)(F)F)cc1)N[C@H]1CCOC1=O" is 5.66

response.value for "O=C(CCc1cccc(I)c1)N[C@H]1CCOC1=O" (field: pIC50) = 6.41

###

assay info: Agonist activity at Escherichia coli DH5alpha LasR receptor by beta-galctosidase reporter gene assay
Type: functional
Listed below: EC50 values for each entry.

Solved cases (2 shown):
CCCCCC(=O)CC(=O)N[C@H]1CCOC1=O :: > 10 µM
CCCC(=O)CC(=O)N[C@H]1CCOC1=O :: > 10 µM

EC50 for "O=C(CCc1ccc(C(F)(F)F)cc1)N[C@H]1CCOC1=O" is > 10 µM
